# tested-on: Tyrosine-protein phosphatase non-receptor type substrate 1 (Homo sapiens) + Leukocyte surface antigen CD47 (Homo sapiens) (UniProt P78324+Q08722)
# Sequence (P78324 whole entry, looked up): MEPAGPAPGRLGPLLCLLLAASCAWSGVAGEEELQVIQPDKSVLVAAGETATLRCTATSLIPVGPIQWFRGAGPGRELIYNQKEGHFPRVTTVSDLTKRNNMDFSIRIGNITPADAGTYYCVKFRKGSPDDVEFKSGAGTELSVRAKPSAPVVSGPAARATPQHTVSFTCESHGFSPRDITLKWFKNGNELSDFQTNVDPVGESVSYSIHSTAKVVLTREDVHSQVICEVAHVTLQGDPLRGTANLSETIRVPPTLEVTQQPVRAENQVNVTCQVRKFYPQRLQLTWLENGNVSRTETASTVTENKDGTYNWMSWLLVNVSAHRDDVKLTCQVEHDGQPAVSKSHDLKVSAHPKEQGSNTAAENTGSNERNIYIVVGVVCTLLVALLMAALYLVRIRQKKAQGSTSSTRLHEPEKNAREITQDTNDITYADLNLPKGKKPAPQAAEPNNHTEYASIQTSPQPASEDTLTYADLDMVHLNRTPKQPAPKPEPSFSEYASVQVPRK
# Sequence (Q08722 whole entry, looked up): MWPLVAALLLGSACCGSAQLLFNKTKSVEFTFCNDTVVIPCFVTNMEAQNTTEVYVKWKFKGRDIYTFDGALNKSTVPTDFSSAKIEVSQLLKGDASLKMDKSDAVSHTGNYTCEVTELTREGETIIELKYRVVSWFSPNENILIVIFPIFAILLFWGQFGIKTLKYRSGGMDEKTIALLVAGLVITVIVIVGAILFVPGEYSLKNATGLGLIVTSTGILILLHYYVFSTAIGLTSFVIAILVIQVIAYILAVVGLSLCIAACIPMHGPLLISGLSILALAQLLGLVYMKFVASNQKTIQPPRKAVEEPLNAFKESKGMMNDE
# test-summary: CD47-SIRPalpha protein protein interaction - Alpha assay qHTS validation (AID 1347059);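 further: bead proximity luminescence from CD47 binding SIRPalpha after compound preincubation with SIRPalpha; on the % scale 0 is the no-effect control and ±100 the full control effect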
# setup-conditions: AlphaScreen CD47-His/biotin-SIRPalpha binding, LOPAC; series mostly up to 38.3 µM
Records with an inconclusive call do not appear. Active and inactive are the calls of the source. The call rests on the fitted dose curve; in most records, active means well fitted inhibition curve with a large enough effect; inconclusive means small, poorly fitted or top-dose-only effect; inactive means flat fitted curve, though single readings scatter.
Hi! Could you answer with just one of these? active, inactive

| molecule | group |
| --- | --- |
| Nc1c2c(nc3ccccc13)CCCC2 | inactive |

Qu. Lab log entry: `C[C@](N)(Cc1ccc(O)c(O)c1)C(=O)O` — outcome as called in the assay?
Ans. inactive

* * *

# test-summary: Nrf2 qHTS screen for inhibitors: Validation (AID 493153)
# setup-conditions: A549 ARE-Fluc reporter, 18-24 h; luciferase luminescence
# Experimental: NIH Molecular Libraries Probe Production Network [MLPCN] NIH Chemical Genomics Center [NCGC] […] Assay Protocol Summary: A concentration-response assay was performed with A549 ARE_Fluc cells which are suspended in 5% FBS OPTI-MEM. […] The plate is then incubated at 37deg C at 5% CO2 for 30 minutes before they are read on the ViewLux (Perkin Elmer) for a fluorescent read Ex=405(10)/Em=525(10) for a 3 second exposure, 2x binning, and high gain. […]
Results filed as inconclusive are left out. Activity calls are given as the source filed them. Calls come from the whole dose curve; as a rule, active = well fitted inhibition curve with a large enough effect in the main read-out, with a control signal flat (not every such curve was filed as active); inconclusive = small, poorly fitted or top-dose-only effect, or effect the other way, or a change in a side signal; inactive = no such curve, though single readings can be large or run the other way.
Hi! Could you answer with just one of these? active, inactive

Examples with answers:
| compound | group |
| --- | --- |
| CC#C[C@]1(O)CC[C@H]2[C@@H]3CCC4=CC(=O)CCC4=C3[C@@H](c3ccc(N(C)C)cc3)C[C@@]21C | active |
| CCCCc1oc2ccccc2c1C(=O)c1cc(I)c(OCCN(CC)CC)c(I)c1 | inactive |
| COc1ccc(C2CNC(=O)C2)cc1OC1CCCC1 (stereo unspecified) | inactive |
| O=c1c(O)c(-c2ccc(O)c(O)c2)oc2cc(O)cc(O)c12 | inactive |
| NCCCCCC(=O)O | inactive |
| Nc1c2c(nc3ccccc13)CCCC2 | inactive |

Qu. Lab log entry: `NS(=O)(=O)c1cc2c(cc1Cl)NCNS2(=O)=O` — outcome as called in the assay?
Ans. inactive

Qu. Lab log entry: `O=C1N(c2ccccc2)c2ccccc2C1(Cc1ccncc1)Cc1ccncc1` — outcome as called in the assay?
Ans. inactive

Qu. Lab log entry: COc1cc2nc(N(C)CCCNC(=O)C3CCCO3)nc(N)c2cc1OC (stereo unspecified) — outcome as called in the assay?
Ans. inactive

Qu. Lab log entry: `Nc1nnc(-c2cccc(Cl)c2Cl)c(N)n1` — outcome as called in the assay?
Ans. inactive

Qu. Lab log entry: `OCCN1CCN(CCCN2c3ccccc3Sc3ccc(C(F)(F)F)cc32)CC1` — outcome as called in the assay?
Ans. inactive

Qu. Lab log entry: CCN1CCCC1CNC(=O)c1cc(S(=O)(=O)CC)c(N)cc1OC (stereo unspecified) — outcome as called in the assay?
Ans. inactive

Qu. Lab log entry: `CNCCCC12CCC(c3ccccc31)c1ccccc12` — outcome as called in the assay?
Ans. inactive

* * *

# Test system: MCC-13
# test-summary: qHTS assay to identify novel small-molecules to repurpose for Merkel cell carcinoma treatment (AID 1296009); further: on the % scale 0 is the no-effect control and ±100 the full control effect; nearly all actives have a fitted effect of over 60% in size
# setup-conditions: MCC and control cell lines, CellTiter-Glo viability, 72 h; series mostly up to 46 µM
Results filed as inconclusive are left out. Activity calls are given as the source filed them. The call rests on the fitted dose curve; in most records, active means well fitted inhibition curve with a large enough effect; inconclusive means small, poorly fitted or top-dose-only effect; inactive means flat fitted curve, though single readings scatter.
Hi! Could you answer with just one of these? t = active, f = inactive

Examples with answers:
| molecule | group |
| --- | --- |
| CN1C2CCC1CC(OC(=O)C(CO)c1ccccc1)C2 (stereo not drawn) | f |
| CC1(C)O[C@H]2CC(=O)OC[C@]23[C@H]2CC[C@@]4(C)[C@H](c5ccoc5)OC(=O)[C@H]5O[C@]54[C@]2(C)C(=O)C[C@@H]13 | f |
| OCCN(CCO)c1nc(N2CCCCC2)c2nc(N(CCO)CCO)nc(N3CCCCC3)c2n1 | f |
| CC12CC3CC(C)(C1)CC(N)(C3)C2 | f |
| CCN1CCCC1CNC(=O)c1cc(S(=O)(=O)CC)c(N)cc1OC (stereo not drawn) | f |

Attention now shifts to the item below.
Qu. Lab log entry: `OCCN1CCN(CCCN2c3ccccc3Sc3ccc(C(F)(F)F)cc32)CC1` — outcome as called in the assay?
Ans. f

* * *

# tested-on: Thyroid hormone receptor beta (Homo sapiens) (UniProt P10828)
# Sequence (P10828 whole entry, looked up): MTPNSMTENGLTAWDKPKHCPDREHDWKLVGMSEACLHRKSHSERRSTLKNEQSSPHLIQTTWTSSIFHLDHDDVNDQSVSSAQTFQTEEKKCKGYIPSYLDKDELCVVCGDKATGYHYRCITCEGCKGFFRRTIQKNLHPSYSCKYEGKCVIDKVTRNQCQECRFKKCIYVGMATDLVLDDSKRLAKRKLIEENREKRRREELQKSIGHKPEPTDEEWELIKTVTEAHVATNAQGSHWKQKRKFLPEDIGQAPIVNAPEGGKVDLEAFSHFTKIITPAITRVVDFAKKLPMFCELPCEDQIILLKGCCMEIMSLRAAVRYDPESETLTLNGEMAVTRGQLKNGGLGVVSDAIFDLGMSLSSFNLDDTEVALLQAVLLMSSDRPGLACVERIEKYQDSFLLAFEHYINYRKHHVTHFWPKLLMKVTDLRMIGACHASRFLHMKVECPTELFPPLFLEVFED
# test-summary: qHTS assay for small molecule antagonists of thyroid hormone receptor beta signaling (AID 588547);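 further: cells stimulated with 0.4 nM T3 agonist during compound exposure; on the % scale 0 is the no-effect control and ±100 the full control effect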
# setup-conditions: TR-UAS-bla HEK293, beta-lactamase ratio, antagonist mode, 18 h
# Description: NIH Chemical Genomics Center [NCGC] U.S. Environmental Protection Agency [EPA] National Institutes of Environmental Health Sciences [NIEHS] National Toxicology Program [NTP] […] NCGC Assay Protocol Summary Using a beta-lactamase reporter-gene under control of the TR response element, a cell-based assay [GeneBLAzer TR-UAS-bla-GripTite assay developed by Invitrogen] was used to measure TR-beta signaling in antagonist mode. […] Detection; Fluorescence; Envision plate reader
Inconclusive results are not listed.
List of activity change % (negative = inhibition) values.
Quick note: give the figure in %, leave out the unit.

| compound | value-measured |
| --- | --- |
| O=C(CCCN1CCC(O)(c2ccc(Cl)cc2)CC1)c1ccc(F)cc1 | -36.9 |
| CCOC(=O)C(C)(C)Oc1ccc(Cl)cc1 | 7.19 |
| O=c1c(-c2ccc(O)cc2)coc2cc(O)cc(O)c12 | -35.3 |
| NCCS(=O)(=O)O | -15.9 |

Qu. Consider the compound `CCC1(c2ccccc2)C(=O)NCNC1=O` . State its measured activity change % (negative = inhibition).
Ans. -16.1

Qu. Consider the compound CC(C)Cc1ccc(C(C)C(=O)O)cc1 (centres undefined) . State its measured activity change % (negative = inhibition).
Ans. -8.69

Qu. Consider the compound `Cn1cnc2c1c(=O)[nH]c(=O)n2C` . State its measured activity change % (negative = inhibition).
Ans. 8.64

Qu. Consider the compound `Nc1c2c(nc3ccccc13)CCCC2` . State its measured activity change % (negative = inhibition).
Ans. -14.9

Qu. Consider the compound `N[C@@H](Cc1c[nH]c2ccc(O)cc12)C(=O)O` . State its measured activity change % (negative = inhibition).
Ans. -8.63

* * *

# test-summary: Cytometric Cell-Based qHTS for Inhibitors of the mTORC1 Signaling Pathway in MEF (Tsc2-/-, p53-/-) Cells (AID 2660);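 further: Tsc2 and p53 null MEFs carrying empty vector with compound for 24 h; percent of cells above a phospho-rpS6 to PI ratio cutoff in each well; plate controls were DMSO for no effect and rapamycin for full effect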
# setup-conditions: mTORC1 pathway cytometry; series mostly up to 38.3 µM
Records with an inconclusive call do not appear. Active and inactive are the calls of the source. The call rests on the fitted dose curve; in most records, active means well fitted curve in the direction sought with a large enough effect; inconclusive means small, poorly fitted or top-dose-only effect, or another doubt; inactive means no such curve, though single readings can be large or run the other way.
reported-property: outcome

| molecule | value-measured |
| --- | --- |
| Clc1ccc2nsnc2c1NC1=NCCN1 | inactive |
| CN1CCN(C2=Nc3cc(Cl)ccc3Nc3ccccc32)CC1 | inactive |
| NCCc1cnc[nH]1 | inactive |
| CCOC(=O)C(C)(C)Oc1ccc(Cl)cc1 | inactive |
| Cc1cc(C(C)(C)C)cc(C)c1CC1=NCCN1 | inactive |
| CC12CC3CC(C)(C1)CC(N)(C3)C2 | inactive |
| Cc1cc(C(C)(C)C)c(O)c(C)c1CC1=NCCN1 | inactive |
| CC(C(=O)O)c1cccc(C(=O)c2ccccc2)c1 (stereo not drawn) | inactive |

Qu. Consider the molecule CC(C)NCC(O)COc1ccc(CCOCC2CC2)cc1 (stereo not drawn) . State its measured outcome.
Ans. inactive

Qu. Consider the molecule `CCOC(=O)c1ncn2c1CN(C)C(=O)c1cc(F)ccc1-2` . State its measured outcome.
Ans. inactive

Qu. Consider the molecule `O=C(CCCN1CCC(O)(c2ccc(Cl)cc2)CC1)c1ccc(F)cc1` . State its measured outcome.
Ans. inactive

Qu. Consider the molecule `NC(=O)OCC(COC(N)=O)c1ccccc1` . State its measured outcome.
Ans. inactive

Qu. Consider the molecule `Cn1cnc2c1c(=O)[nH]c(=O)n2C` . State its measured outcome.
Ans. inactive

* * *

# Test system: CP269
# test-summary: qHTS profiling for inhibitors of Plasmodium falciparum proliferation (AID 504749);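 further: 0% = DMSO vehicle and full inhibition = artemisinin control; nearly all actives have a fitted effect of over 60% in size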
# setup-conditions: P. falciparum in erythrocytes, SYBR Green DNA, 72 h; series mostly up to 28.7 µM
Inconclusive results are not listed. Calls of active or inactive are those of the source. Calls follow the shape of the dose curve; as a rule, active = well fitted inhibition curve with a large enough effect; inconclusive = small, poorly fitted or top-dose-only effect; inactive = flat fitted curve, though single readings scatter.
reported-property: outcome

// worked examples, outcome included
| compound | tested-on | value-measured |
| --- | --- | --- |
| COc1cc2c(c(OC)c1OC)-c1ccc(OC)c(=O)cc1[C@@H](NC(C)=O)CC2 | CP269 | inactive |
| CC(C)(C)C(=O)Oc1ccc(S(=O)(=O)Nc2ccccc2C(=O)NCC(=O)O)cc1 | CP269 | inactive |
| CC(=O)OCC(CCn1cnc2cnc(N)nc21)COC(C)=O | CP269 | inactive |
| COc1ccccc1OCC(O)CN1CCN(CC(=O)Nc2c(C)cccc2C)CC1 (stereo not given) | CP269 | inactive |
| Cn1c(=O)c2c(ncn2C)n(C)c1=O | CP269 | inactive |
| CN(CCOc1ccc(NS(C)(=O)=O)cc1)CCc1ccc(NS(C)(=O)=O)cc1 | CP269 | inactive |
| CC(CCc1ccc(O)cc1)NCCc1ccc(O)c(O)c1 (stereo not given) | CP269 | inactive |
| CN(Cc1cnc2nc(N)nc(N)c2n1)c1ccc(C(=O)N[C@@H](CCC(=O)O)C(=O)O)cc1 | CP269 | inactive |

Qu. Consider the compound `Cc1ccc(C(=O)Nc2ccc(S(=O)(=O)O)c3cc(S(=O)(=O)O)cc(S(=O)(=O)O)c23)cc1NC(=O)c1cccc(NC(=O)Nc2cccc(C(=O)Nc3cc(C(=O)Nc4ccc(S(=O)(=O)O)c5cc(S(=O)(=O)O)cc(S(=O)(=O)O)c45)ccc3C)c2)c1` . State its measured outcome.
Ans. inactive

Qu. Consider the compound `CCOC(=O)C(C)(C)Oc1ccc(Cl)cc1` . State its measured outcome.
Ans. inactive
